assay name: qHTS assay to identify small molecule antagonists of the thyroid receptor (TR) signaling pathway (AID 743065); also: nearly all actives have a fitted effect of over 55% in size
measurement context: GH3.TRE-Luc, T3-stimulated luciferase inhibition, 23.5 h; series mostly up to 70.3 µM
Inconclusive results are not listed. Active and inactive are the calls of the source. Calls follow the shape of the dose curve; as a rule, active = well fitted inhibition curve with a large enough effect in the repeat runs; inconclusive = weak or mixed curves; inactive = no such curve, though single readings can be large or run the other way.
// classify into true = active, false = inactive

Look over these answered cases.
OCc1ccc(Cl)cc1Cl = false
CCCCCCCCCCCCCC(=O)O = false
CCOC(=O)CC(=O)OCC = false
CC(C)=CCC/C(C)=C/C=O = false
COc1ccc2cc3[n+](cc2c1OC)CCc1cc2c(cc1-3)OCO2 = true
CC(O)CNCC(C)O (stereo unspecified) = false
Cc1ccc([N+](=O)[O-])cc1N = false
CS(=O)(=O)c1ccc(Cl)cc1 = false

Next molecule, please.
Q) Record lookup: outcome of this test for OCCOCCOCCOCCOCCO ?
A) false

---

assay name: qHTS assay to identify small molecule agonists of H2AX (AID 1224845); also: % is scaled to controls: 0 for no effect and ±100 for the full control effect
measurement context: CHO-K1 phospho-H2AX Ser139 HTRF, 3 h; series mostly up to 154 µM
From the text: National Center for Advancing Translational Sciences [NCATS] NIH Chemical Genomics Center [NCGC] U.S. Environmental Protection Agency [EPA] National Institutes of Environmental Health Sciences [NIEHS] National Toxicology Program [NTP] U.S. Food and Drug Administration [FDA] HTRF phospho-H2AX (Ser139) assay (Cisbio Bioassays, US) enables the quantitative detection of the histone variant H2AX when phosphorylated on serine 139. […]
Inconclusive results are not listed. The source made the active and inactive calls. Calls follow the shape of the dose curve; as a rule, active = well fitted activation curve with a large enough effect in the signal ratio in the repeat runs (not every such curve was filed as active); inconclusive = weak or mixed curves; inactive = flat fitted curve, though single readings scatter; the % refers to the signal ratio.
result type: outcome

Solved cases (5 shown):
CC(=O)Nc1ccc(CC(=O)O)cc1 = inactive
COC(=O)CCCCC(=O)OC = inactive
O=Cc1ccc(CO)o1 = inactive
CC(COCC(C)OC(=O)c1ccccc1)OC(=O)c1ccccc1 (stereo not drawn) = inactive
OC1CCCCC1 = inactive

Q) Given the entry C=C1C[C@]23C[C@@]1(O)CC[C@H]2[C@@]12C=C[C@H](O)[C@@](C)(C(=O)O1)[C@H]2[C@@H]3C(=O)O , report its measured outcome.
A) inactive

Q) Given the entry O=C1O[C@H]([C@H](O)CO)C(O)=C1O , report its measured outcome.
A) inactive

Q) Given the entry CC(=O)c1nccs1 , report its measured outcome.
A) inactive

Q) Given the entry CC(C)(C)NC[C@H](O)COc1nsnc1N1CCOCC1 , report its measured outcome.
A) inactive

Q) Given the entry COc1c2ccoc2cc2oc(=O)ccc12 , report its measured outcome.
A) inactive

Q) Given the entry N#CCC(=O)O , report its measured outcome.
A) inactive

---

assay name: qHTS assay to identify small molecule antagonists of the farnesoid-X-receptor (FXR) signaling pathway - cell viability counter screen (AID 743221); also: nearly all actives have a fitted effect of over 50% in size
measurement context: FXR-bla HEK293T viability, CellTiter-Glo luminescence, 16 h; series mostly up to 62.6 µM
Inconclusive results are not listed. Active and inactive are the calls of the source. The call rests on the fitted dose curve; in most records, active means well fitted cell-killing curve with a large enough effect in the repeat runs (not every such curve was filed as active); inconclusive means weak or mixed curves, or effect the other way; inactive means no such curve, though single readings can be large or run the other way.
// classify into 1 = active, -1 = inactive

Look over these answered cases.
CC(C)=CCC/C(C)=C/C=O = -1
CC(=O)OC/C=C(\C)CCC=C(C)C = -1
CC(=O)OC(C)(C)C1CC=C(C)CC1 (stereo not given) = -1
CC(CN1c2ccccc2Sc2ccccc21)N(C)C (stereo not given) = 1
O=[N+]([O-])c1cc(C(F)(F)F)ccc1Cl = -1
C1CCCNCC1 = -1
CCCCCC(C)=O = -1
Nc1cccc(C(F)(F)F)c1 = -1

Q) Record lookup: outcome of this test for C[Si](C)(C)N[Si](C)(C)C ?
A) -1

Q) Record lookup: outcome of this test for CCOC(=O)CC(=O)OCC ?
A) -1

Q) Record lookup: outcome of this test for Cc1cc(CC(=O)O)n(C)c1C(=O)c1ccc(Cl)cc1 ?
A) -1

Q) Record lookup: outcome of this test for CN1Cc2c(N)cccc2C(c2ccccc2)C1 (stereo not given) ?
A) -1

---

assay name: qHTS assay for identifying genotoxic compounds that show differential cytotoxicity against isogenic chicken DT40 cell lines with known DNA damage response pathways - Rad54/Ku70 mutant cell line (AID 743015); also: % is scaled to controls: 0 for no effect and ±100 for the full control effect; nearly all actives have a fitted effect of over 60% in size
measurement context: DT40 Rad54/Ku70 mutant viability, CellTiter-Glo, 40 h; series mostly up to 66.8 µM
Results filed as inconclusive are left out. Activity calls are given as the source filed them. The call rests on the fitted dose curve; in most records, active means well fitted cell-killing curve with a large enough effect in the repeat runs; inconclusive means weak or mixed curves; inactive means no such curve, though single readings can be large or run the other way.
// classify into True for active, False for inactive

Look over these answered cases.
CCCCCCCCC(=O)O = False
CN1CCCC1=O = False
Cc1ccc([N+](=O)[O-])cc1N = False

Next compound, please.
Q) Record lookup: outcome of this test for Cc1cc(C)c(O)c(C)c1 ?
A) False

---

study target: Thyrotropin-releasing hormone receptor (Homo sapiens)
assay name: qHTS assay to identify small molecule antagonists of the thyrotropin-releasing hormone receptor (TRHR) signaling pathway (AID 1346877); also: % is scaled to controls: 0 for no effect and ±100 for the full control effect
measurement context: TRHR-HEK293, TRH-induced calcium fluorescence, antagonist mode; series mostly up to 51.3 µM
The source made the active and inactive calls. Calls follow the shape of the dose curve; as a rule, active = well fitted inhibition curve with a large enough effect in the repeat runs (not every such curve was filed as active); inconclusive = weak or mixed curves; inactive = flat fitted curve, though single readings scatter.
result type: outcome

Solved cases (4 shown):
O=C(c1ccccc1)c1ccc(O)c(O)c1O = inactive
CCCN(CCC)C(=O)SCC = inactive
CC/C=C(\C(=O)N[C@@H]1C(=O)N2C(C(=O)OCOC(=O)C(C)(C)C)=C(COC(N)=O)CS[C@H]12)c1csc(N)n1 = inactive
CC1(C)C(=O)N(Cl)C(=O)N1Cl = inactive

Q) Given the entry CCn1cc(C(=O)O)c(=O)c2cc3c(cc21)OCO3 , report its measured outcome.
A) inactive

Q) Given the entry C=CC(=O)NCOCCCC , report its measured outcome.
A) inactive

Q) Given the entry CC(=O)c1nccs1 , report its measured outcome.
A) inactive

---

study target: Cytochrome P450 2C19 (Homo sapiens)
assay name: Cytochrome P450 Family 2 Subfamily C Member 19 (CYP2C19) small molecule antagonists: luciferase reporter qHTS assay (AID 1671197); also: nearly all actives have a fitted effect of over 65% in size
measurement context: P450-Glo CYP2C19 enzyme, luciferin luminescence, 1 h; series mostly up to 115 µM
Inconclusive results are not listed. The source made the active and inactive calls. Calls come from the whole dose curve; as a rule, active = well fitted inhibition curve with a large enough effect in the repeat runs; inconclusive = weak or mixed curves; inactive = no such curve, though single readings can be large or run the other way.
// classify into active, inactive

Look over these answered cases.
CC(C)(CO)CO = inactive
CS(=O)(=O)c1ccc(Cl)cc1 = inactive
OCC(O)CS (stereo not drawn) = inactive
O=C1C(N(CO)C(=O)NCO)N(CO)C(=O)N1CO (stereo not drawn) = inactive
CCOC(=O)CC(=O)OCC = inactive

Q) Record lookup: outcome of this test for Cc1nnc(NS(=O)(=O)c2ccc(N)cc2)s1 ?
A) active

Q) Record lookup: outcome of this test for OCC(CO)(CO)CO ?
A) inactive

Q) Record lookup: outcome of this test for CC(=O)CC(=O)N(C)C ?
A) inactive

Q) Record lookup: outcome of this test for CCCN(CCC)C(=O)SCC ?
A) inactive

Q) Record lookup: outcome of this test for CC(=O)OC(C)(C)C1CC=C(C)CC1 (stereo not drawn) ?
A) active

Q) Record lookup: outcome of this test for Nc1cccc(C(F)(F)F)c1 ?
A) inactive

Q) Record lookup: outcome of this test for CC(C)(C)NC[C@H](O)COc1nsnc1N1CCOCC1 ?
A) inactive

Q) Record lookup: outcome of this test for COc1ccc([C@@H]2CC(=O)c3c(O)cc(O[C@@H]4O[C@H](CO[C@@H]5O[C@@H](C)[C@H](O)[C@@H](O)[C@H]5O)[C@@H](O)[C@H](O)[C@H]4O)cc3O2)cc1OC ?
A) inactive

---

study target: Peroxisome proliferator-activated receptor delta (Homo sapiens) (UniProt Q03181)
Sequence (Q03181 whole entry, looked up): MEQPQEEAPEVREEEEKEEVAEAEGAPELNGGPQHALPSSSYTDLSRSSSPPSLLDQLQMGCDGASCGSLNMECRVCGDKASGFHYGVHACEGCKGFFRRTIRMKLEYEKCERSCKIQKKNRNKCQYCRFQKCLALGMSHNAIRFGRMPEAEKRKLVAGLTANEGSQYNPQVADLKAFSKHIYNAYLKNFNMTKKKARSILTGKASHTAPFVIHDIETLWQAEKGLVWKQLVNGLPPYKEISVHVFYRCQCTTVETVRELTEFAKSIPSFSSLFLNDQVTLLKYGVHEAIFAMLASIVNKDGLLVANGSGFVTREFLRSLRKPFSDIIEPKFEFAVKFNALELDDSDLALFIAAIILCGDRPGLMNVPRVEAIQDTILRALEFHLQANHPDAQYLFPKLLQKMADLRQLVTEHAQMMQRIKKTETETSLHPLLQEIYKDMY
assay name: qHTS assay to identify small molecule antagonists of the peroxisome proliferator-activated receptor delta (PPARd) signaling pathway (AID 743215);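 also: cells stimulated with agonist L165041 at 300 nM final during compound exposure; % is scaled to controls: 0 for no effect and ±100 for the full control effect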
measurement context: HEK293H PPARd-UAS-bla, beta-lactamase FRET ratio, antagonist, 17 h; series mostly up to 62 µM
Inconclusive results are not listed. The source made the active and inactive calls. The call rests on the fitted dose curve; in most records, active means well fitted inhibition curve with a large enough effect in the signal ratio in the repeat runs (not every such curve was filed as active); inconclusive means weak or mixed curves, or effect the other way; inactive means no such curve, though single readings can be large or run the other way; the % refers to the signal ratio.
result type: outcome

Solved cases (5 shown):
Cc1ccc([N+](=O)[O-])cc1N = inactive
CCCOCC(C)O (configuration not stated) = inactive
N[C@@H](Cc1cc(I)c(Oc2ccc(O)c(I)c2)c(I)c1)C(=O)O = inactive
CCCCCCCCO = inactive
NC(=O)NC(N)=O = inactive

Q) Please provide the recorded outcome for CCOC(=O)CC(=O)OCC , tested on Peroxisome proliferator-activated receptor delta (Homo sapiens) (UniProt Q03181).
A) inactive

Q) Please provide the recorded outcome for CCn1cc(C(=O)O)c(=O)c2cc3c(cc21)OCO3 , tested on Peroxisome proliferator-activated receptor delta (Homo sapiens) (UniProt Q03181).
A) inactive

---

study target: Nuclear receptor ROR-gamma (Homo sapiens)
assay name: qHTS assay to identify small molecule antagonists of the retinoid-related orphan receptor gamma (ROR-gamma) signaling pathway (AID 1159521;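 also: CHO cells with doxycycline inducible ROR-gamma driving an RORE luciferase reporter; top concentration of the series differs between compounds; % is scaled to controls: 0 for no effect and ±100 for the full control effect; nearly all actives have a fitted effect of over 50% in size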)
measurement context: Tet-on RORgamma CHO cells, RORE-luciferase, 16 h; series mostly up to 92.4 µM
Records with an inconclusive call do not appear. Calls of active or inactive are those of the source. Calls follow the shape of the dose curve; as a rule, active = well fitted inhibition curve with a large enough effect in the repeat runs; inconclusive = weak or mixed curves, or effect the other way; inactive = no such curve, though single readings can be large or run the other way.
result type: outcome

CN1Cc2c(N)cccc2C(c2ccccc2)C1 (stereo unspecified) = inactive
O=C(Cl)c1ccc(C(=O)Cl)cc1 = inactive
Oc1ccc(Cc2ccccc2O)cc1 = inactive
CCCCC(CC)COC(=O)c1ccc(C(=O)OCC(CC)CCCC)cc1 (stereo unspecified) = inactive
Cc1ccc(Cl)cc1 = inactive

Q) Given the entry CCCCCC(C)=O , report its measured outcome.
A) inactive

Q) Given the entry CCn1cc(C(=O)O)c(=O)c2cc3c(cc21)OCO3 , report its measured outcome.
A) inactive

Q) Given the entry O=C1CCCCCCCCCCC1 , report its measured outcome.
A) inactive

Q) Given the entry CC(C=O)Cc1ccc(C(C)(C)C)cc1 (stereo unspecified) , report its measured outcome.
A) inactive

Q) Given the entry CC[N+](CC)(CC(=O)Nc1c(C)cccc1C)Cc1ccccc1 , report its measured outcome.
A) inactive

Sourced from PubChem BioAssay (Tox21)
